Source: PubChem BioAssay (NCI)

- Tested on: KM12 colon
- METHOD SUMMARY: NCI-60 one-dose screen, 48 h
- ASSAY CONTEXT: 10 µM
Compounds without any hit were thinned out: in the full panel of roughly 83,000, 20% have a hit. The source made the active and inactive calls. How the source made its calls: active means growth percent below 10; inactive means the rest.
Labels: TRUE (active), FALSE (inactive)

>  <RECORD SMILES>
O=C(CNc1nc(-c2ccccc2)cs1)Nc1ccccc1

>  <ASSIGNED CLASS>
TRUE

$$$$
>  <RECORD SMILES>
CCOC(=O)c1c(CSc2ccccc2)n(C)c2cc(CN(C)C)c(O)c(CN(C)C)c12

>  <ASSIGNED CLASS>
FALSE

$$$$
>  <RECORD SMILES>
Cc1cccc2cc(-c3cc(-c4ccccc4)nc(=O)[nH]3)c(Cl)nc12

>  <ASSIGNED CLASS>
FALSE

$$$$
>  <RECORD SMILES>
COc1ccc(-c2cc(C(=O)N=Nc3c(O)[nH]c4ccc(Br)cc34)c3ccccc3n2)cc1

>  <ASSIGNED CLASS>
FALSE

$$$$
>  <RECORD SMILES>
O=C(CSc1nnc(-c2c[nH]c3ccccc23)n1-c1ccccc1)Nc1ccc(C(=O)/C=C/c2cccc([N+](=O)[O-])c2)cc1

>  <ASSIGNED CLASS>
FALSE

$$$$
>  <RECORD SMILES>
O=C(N=Nc1c(O)[nH]c2ccc(Br)cc12)c1ccc2nc(-c3ccccc3)[nH]c2c1

>  <ASSIGNED CLASS>
TRUE

$$$$
>  <RECORD SMILES>
C=C(c1ccc(OC)c(N)c1)c1cc(C)nc2ccccc12

>  <ASSIGNED CLASS>
FALSE

$$$$
>  <RECORD SMILES>
COc1ccc(/C(CSc2nnc(-c3c[nH]c4ccccc34)n2-c2ccccc2)=N/O)cc1

>  <ASSIGNED CLASS>
FALSE

$$$$
>  <RECORD SMILES>
COc1ccc(-c2cc(C(=O)N=Nc3c(O)[nH]c4ccc(F)cc34)c3ccccc3n2)cc1

>  <ASSIGNED CLASS>
FALSE

$$$$

---

- System: CCRF-CEM leukemia
- METHOD SUMMARY: NCI-60 one-dose screen, 48 h
- ASSAY CONTEXT: 10 µM
Compounds without any hit were thinned out: in the full panel of roughly 83,000, 20% have a hit. Calls of active or inactive are those of the source. How the source made its calls: active means growth percent below 10; inactive means the rest.
Labels: active, inactive

>  <COMPOUND>
C=C[C@@]12CN3CC[C@]1(O)[C@@](C(=O)OC)(CO2)c1[nH]c2ccccc2c1C3

>  <ASSIGNED CLASS>
inactive

$$$$
>  <COMPOUND>
COc1cc(/C=C/C(=O)c2ccc(NC(=O)CN3C(=O)NC(C)(c4ccccc4)C3=O)cc2)cc(OC)c1OC (centres undefined)

>  <ASSIGNED CLASS>
active

$$$$
>  <COMPOUND>
O=C1Nc2cc(Cl)ccc2/C1=C/c1cccc(OCc2ccccc2)c1

>  <ASSIGNED CLASS>
active

$$$$
>  <COMPOUND>
CCOP(=O)(OCC)O[C@H]1CC[C@]2(C)[C@H]3CC[C@@H]4[C@@H]([C@](C)(O)CCC=C(C)C)CC[C@@]4(C)[C@]3(C)CC[C@H]2C1(C)C

>  <ASSIGNED CLASS>
active

$$$$

---

Item-by-item account of growth
- Test system: HT29 colon
- METHOD SUMMARY: NCI-60 one-dose screen, 48 h (100 = growth as untreated, 0 = no growth, -100 = all killed)
- ASSAY CONTEXT: 10 µM
This is part of a sample that, as a whole, favours compounds with a hit. Of some 83,000 tested, about 20% had one in any assay.

>  <COMPOUND>
Cc1cccc2cc(-c3cc(-c4ccccc4)nc(=O)[nH]3)c(Cl)nc12

>  <growth / %>
107

$$$$
>  <COMPOUND>
COc1ccc(/C=C/C(=O)c2ccc(NC(=O)CN3C(=O)NC(C)(c4ccccc4)C3=O)cc2)cc1 (centres undefined)

>  <growth / %>
67.6

$$$$
>  <COMPOUND>
CN1C(=O)/C(=C/c2ccc3ncsc3c2)NC1=NC12CC3CC(CC(O)(C3)C1)C2

>  <growth / %>
3.87

$$$$
>  <COMPOUND>
O=c1[nH]c2ccccc2cc1CSc1ccc(Nc2nccc(-c3ccc(C(F)(F)F)cc3)n2)cc1

>  <growth / %>
28.8

$$$$
>  <COMPOUND>
Nc1nc(Nc2ccc(Cl)cc2)nn1Cc1cccc(Br)c1

>  <growth / %>
54.1

$$$$
>  <COMPOUND>
C=C1CC[C@H](C(=C)C)[C@H]2C=C(C)C(=O)C3=C(C(=O)[C@@](C)(O)C3)[C@H]12

>  <growth / %>
-37.6

$$$$
>  <COMPOUND>
C#Cc1ccc(S(=O)(=O)Nc2cccc(-c3csc(NC(C)=O)n3)c2)cc1

>  <growth / %>
71.4

$$$$
>  <COMPOUND>
Nc1cccnc1/C=N/NC(=S)NCCNC(=O)c1ccc(-n2nc(-c3ccccc3O)nc2-c2ccccc2O)cc1

>  <growth / %>
-42.8

$$$$
>  <COMPOUND>
COc1cc(Cn2c(C(F)(F)F)cc3c(Cl)ncnc32)ccn1

>  <growth / %>
69.7

$$$$

---

- System: NCI-H460 lung
- METHOD SUMMARY: NCI-60 one-dose screen, 48 h (100 = growth as untreated, 0 = no growth, -100 = all killed)
- ASSAY CONTEXT: 10 µM
Compounds without any hit were thinned out: in the full panel of roughly 83,000, 20% have a hit.
Item-by-item account of growth
VALUE KIND: growth (%)

>  <RECORD SMILES>
Cc1ccc(NC(=O)NCn2c(=O)[nH]c3ccccc3c2=O)cc1

>  <VALUE KIND>
growth

>  <UNIT TEXT>
%

>  <MEASURED VALUE>
64.7

$$$$
>  <RECORD SMILES>
COc1cc2c3c(n(CCCNC(C)C)c(=O)c2cc1OC)-c1nc2c(cc1C3=O)OCO2

>  <VALUE KIND>
growth

>  <UNIT TEXT>
%

>  <MEASURED VALUE>
-74.2

$$$$
>  <RECORD SMILES>
COc1ccc2[nH]c(O)c(N=NC(=O)COc3ccc(NC(=O)Nc4ccc(Cl)c(Cl)c4)cc3)c2c1

>  <VALUE KIND>
growth

>  <UNIT TEXT>
%

>  <MEASURED VALUE>
15.5

$$$$
>  <RECORD SMILES>
Cc1ccc(-c2nc3ccc(C(=O)N=Nc4c(O)[nH]c5ccc(Cl)cc45)cc3[nH]2)cc1

>  <VALUE KIND>
growth

>  <UNIT TEXT>
%

>  <MEASURED VALUE>
4.47

$$$$
>  <RECORD SMILES>
CCN1CCN(c2ccc(NC(=O)Nc3ccc(-c4cc(C(=O)NC(C)C)c5ncccc5n4)cc3)cc2C(F)(F)F)CC1

>  <VALUE KIND>
growth

>  <UNIT TEXT>
%

>  <MEASURED VALUE>
-40.5

$$$$
>  <RECORD SMILES>
CSc1nc(-c2cccc(C)c2)c2cc(-c3ccccc3)n(C)c2n1

>  <VALUE KIND>
growth

>  <UNIT TEXT>
%

>  <MEASURED VALUE>
10.8

$$$$
>  <RECORD SMILES>
NS(=O)(=O)c1ccc(N=Nc2c(O)n(CC(=O)Nc3ccccc3Br)c3ccccc23)cc1

>  <VALUE KIND>
growth

>  <UNIT TEXT>
%

>  <MEASURED VALUE>
26.4

$$$$
>  <RECORD SMILES>
N#Cc1c(NC(=O)c2ccc(C(F)(F)F)cc2C(F)(F)F)sc2c1CCC(=O)C2

>  <VALUE KIND>
growth

>  <UNIT TEXT>
%

>  <MEASURED VALUE>
12

$$$$
>  <RECORD SMILES>
Clc1ccc(/C=N/Nc2ncnc3sc4c(c23)CCN(Cc2ccccc2)C4)cc1

>  <VALUE KIND>
growth

>  <UNIT TEXT>
%

>  <MEASURED VALUE>
-75.6

$$$$
